// Percent Effect lookup, one value per entry
- Tested on: Mycobacterium tuberculosis
- assay-comment: Cornell - Phenotypic assay to identify agents that inhibit growth of Mycobacterium tuberculosis
- Format: functional
- Set-up: scale not given: direction of the effect not stated beside the values
- experimental-conditions: 10 mM as filed; unlikely as a test dose
Out of some 53,000 compounds screened, about 900 (1.7%) showed an effect of 50% or more. This is one part of a sample in which strong results are shown more often than they occur.

{"molecule": "CN1CCCC(c2nnc3n2CCN(S(=O)(=O)c2ccccc2Cl)C3)C1 (stereo not given)", "Percent Effect [%]": 2.1}
{"molecule": "CCc1cccc2c(CC(=O)N(C)CCN(C)C)c(C)[nH]c12.O=C(O)CC(O)(CC(=O)O)C(=O)O", "Percent Effect [%]": 51.84}
{"molecule": "CC(C)(CC(=O)Nc1cccc(Oc2ccccn2)c1)C(=O)O", "Percent Effect [%]": -19.67}
{"molecule": "CCc1oc(C(=O)N(C)Cc2ccncc2)cc1CN(CC)CC", "Percent Effect [%]": 3.07}
{"molecule": "Cc1ccc2c(CC(=O)N(C)CCN(C)C)c(C)[nH]c2c1C.O=C(O)CC(O)(CC(=O)O)C(=O)O", "Percent Effect [%]": 8.878}
{"molecule": "Cc1ccc2c(n1)N(Cc1cccnc1)CCN(C(=O)C1CC=CC1)C2", "Percent Effect [%]": 30.61}
{"molecule": "COc1ccc(Cl)cc1C(=O)N1C[C@@H](NC(=O)N(C)C)[C@H](C(C)C)C1", "Percent Effect [%]": -26.21}
{"molecule": "O=C(Nc1ccc(Br)cc1F)c1cc(CN2CCOCC2)on1", "Percent Effect [%]": 74.1}
{"molecule": "O=C(NCc1ccccc1CN1CCOCC1)c1ccc(Br)cc1F", "Percent Effect [%]": 8.243}
{"molecule": "COc1ccc2[nH]cc(-c3ccnc(NC4CCCC4)n3)c2c1", "Percent Effect [%]": 104.1}

###

- Tested on: Mycobacterium tuberculosis
- assay-comment: Cornell - Phenotypic assay to identify agents that inhibit growth of Mycobacterium tuberculosis
- Type: functional
- Design: scale not given: direction of the effect not stated beside the values
- experimental-conditions: 10 mM as filed; unlikely as a test dose
Screen size: about 53,000 compounds; about 900 (1.7%) showed an effect of 50% or more. Many of the other results were omitted from the sample, so strong results are more common in it than they were.
// Percent Effect lookup, one value per entry
property-name: Percent Effect (%)

{"compound": "CCS(=O)(=O)N1CCc2ccc(NC(=O)Nc3cccc(C#N)c3)cc21", "unit-string": "%", "data-value": 83.89}
{"compound": "O=S(=O)(NCCCn1cncn1)c1ccc2c(c1)OCCO2", "unit-string": "%", "data-value": -20.65}
{"compound": "O=C(NCc1ccccc1)NCc1nc(-c2ccncc2)n[nH]1", "unit-string": "%", "data-value": 13.27}
{"compound": "CC(C(N)=O)N1CCN(c2ncc(Cl)cn2)CC1 (stereo unspecified)", "unit-string": "%", "data-value": -8.902}
{"compound": "N#Cc1ccc(N2CCC3(CCC(=O)N3CCN3CCCC3)CC2)nc1.O=C(O)C(F)(F)F.O=C(O)C(F)(F)F", "unit-string": "%", "data-value": 3.156}
{"compound": "CCS(=O)(=O)N1CCc2ccc(NC(=O)Nc3cccc(C)c3)cc21", "unit-string": "%", "data-value": 35.62}
{"compound": "CNS(=O)(=O)c1cccc(S(=O)(=O)Nc2ncc(C)s2)c1", "unit-string": "%", "data-value": 51.19}
{"compound": "Cc1cnc(NS(=O)(=O)c2ccccc2)s1", "unit-string": "%", "data-value": 18.01}
{"compound": "CCOc1ncccc1CNS(=O)(=O)c1ccc2c(c1)CCC2", "unit-string": "%", "data-value": 13.09}
{"compound": "Cc1cnc(NS(=O)(=O)c2cccc(C#N)c2)s1", "unit-string": "%", "data-value": -17.84}
{"compound": "Cc1ccc2c(c1)[C@@H](CC(=O)N(C)C)CCO2", "unit-string": "%", "data-value": 3.607}

###

// Percent Effect lookup, one value per entry
- System: Mycobacterium tuberculosis
- assay-comment: Cornell - Phenotypic assay to identify agents that inhibit growth of Mycobacterium tuberculosis
- Format: functional
- Design: scale not given: direction of the effect not stated beside the values
- experimental-conditions: 10 mM as filed; unlikely as a test dose
Among all 53,000 compounds or so, about 900 (1.7%) showed an effect of 50% or more. What follows is part of a selection rich in strong results, with near analogues and random picks from the rest.
property-name: Percent Effect

{"molecule": "O=C(c1cc2cccc(F)c2[nH]1)N1C[C@@H](O)[C@H](N2CCCC2)C1", "property-name": "Percent Effect", "data-value": "36.56%"}
{"molecule": "CCC(NC(=O)NCC(=O)NC(C)C)c1cc(F)ccc1F (stereo not drawn)", "property-name": "Percent Effect", "data-value": "5.032%"}
{"molecule": "Cc1nc(C)n(CC2CCCN(Cc3ccc4c(c3)OCCO4)C2)n1 (stereo not drawn)", "property-name": "Percent Effect", "data-value": "7.597%"}
{"molecule": "CC(C)(C)c1nc(CN(CCO)Cc2cc(Br)ccc2F)no1", "property-name": "Percent Effect", "data-value": "21.92%"}
{"molecule": "COc1ccc(NC(=O)C2CC(=O)n3cnnc3S2)cc1 (stereo not drawn)", "property-name": "Percent Effect", "data-value": "106.3%"}
{"molecule": "CCCc1nc(CN(CCO)Cc2cc(Br)ccc2F)no1", "property-name": "Percent Effect", "data-value": "55.91%"}
{"molecule": "Cc1nn(C)c(N2CCCN(C)CC2)c1CNC(=O)CC1CCCC1", "property-name": "Percent Effect", "data-value": "23.58%"}
{"molecule": "Cc1cccc(NC(=O)C2CC(=O)n3cnnc3S2)c1 (stereo not drawn)", "property-name": "Percent Effect", "data-value": "107.8%"}
{"molecule": "COc1cccc(NC(=O)C2CC(=O)n3cnnc3S2)c1 (stereo not drawn)", "property-name": "Percent Effect", "data-value": "106.8%"}
{"molecule": "Cc1cc(-c2cnc(N3CCCCCC3)nc2-c2cccnc2C)on1", "property-name": "Percent Effect", "data-value": "62.64%"}
{"molecule": "COc1cccc(NC(=O)N2CC[C@@H]3CN(C)S(=O)(=O)[C@@H]3CC2)c1", "property-name": "Percent Effect", "data-value": "-43.46%"}
{"molecule": "CC(C)CCN1C(=O)C2(NC(=O)c3ccccc3O2)c2ccccc21 (stereo not drawn)", "property-name": "Percent Effect", "data-value": "40.69%"}
{"molecule": "CN(C)C(=O)C1CCC2(CCN(C(=O)Nc3ccccc3)CC2)O1 (stereo not drawn)", "property-name": "Percent Effect", "data-value": "2.965%"}
{"molecule": "CCC(O)c1nc2c([nH]1)CC(C)(C)CNC2=O (stereo not drawn)", "property-name": "Percent Effect", "data-value": "-22.87%"}
{"molecule": "CCCn1c(C)c(CC(=O)N[C@H](C)C(=O)OC)c2c1CC(C)(C)CC2=O", "property-name": "Percent Effect", "data-value": "46.36%"}
{"molecule": "Cc1nnc(-c2cccc(C#N)c2)n1C1CCN(C(C)C)C1=O (stereo not drawn)", "property-name": "Percent Effect", "data-value": "5.61%"}
{"molecule": "Cn1ncc2c(N3CCC(CCO)CC3)nc(C(C)(C)C)nc21", "property-name": "Percent Effect", "data-value": "26.71%"}
{"molecule": "O=C(c1cnc(-c2cccs2)s1)N1CCCC(n2ccnc2)C1 (stereo not drawn)", "property-name": "Percent Effect", "data-value": "6.926%"}
{"molecule": "COc1ccc(NC(=O)C(c2ccc(OC)cc2)N2CCOCC2)cc1 (stereo not drawn)", "property-name": "Percent Effect", "data-value": "-0.3618%"}
{"molecule": "CCn1cc(CN2CCCN(C(=O)CCc3ccccc3)CC2)cn1", "property-name": "Percent Effect", "data-value": "-0.8409%"}
{"molecule": "Cc1noc(CN(CCO)Cc2cc(Br)ccc2F)n1", "property-name": "Percent Effect", "data-value": "29.28%"}
{"molecule": "Cn1ccnc1-c1nc(N2CCCCC2)ncc1-c1ccccc1F", "property-name": "Percent Effect", "data-value": "56.75%"}
{"molecule": "CN(C)[C@@H]1CN(C(=O)c2cc3cccc(F)c3[nH]2)C[C@H]1O", "property-name": "Percent Effect", "data-value": "57.85%"}
